Target: human PI3Kα protein (Homo sapiens)
Construct: purchased Carna Biosciences, Inc; host or cells: baculovirus expression system
Sequence (P42336 whole entry): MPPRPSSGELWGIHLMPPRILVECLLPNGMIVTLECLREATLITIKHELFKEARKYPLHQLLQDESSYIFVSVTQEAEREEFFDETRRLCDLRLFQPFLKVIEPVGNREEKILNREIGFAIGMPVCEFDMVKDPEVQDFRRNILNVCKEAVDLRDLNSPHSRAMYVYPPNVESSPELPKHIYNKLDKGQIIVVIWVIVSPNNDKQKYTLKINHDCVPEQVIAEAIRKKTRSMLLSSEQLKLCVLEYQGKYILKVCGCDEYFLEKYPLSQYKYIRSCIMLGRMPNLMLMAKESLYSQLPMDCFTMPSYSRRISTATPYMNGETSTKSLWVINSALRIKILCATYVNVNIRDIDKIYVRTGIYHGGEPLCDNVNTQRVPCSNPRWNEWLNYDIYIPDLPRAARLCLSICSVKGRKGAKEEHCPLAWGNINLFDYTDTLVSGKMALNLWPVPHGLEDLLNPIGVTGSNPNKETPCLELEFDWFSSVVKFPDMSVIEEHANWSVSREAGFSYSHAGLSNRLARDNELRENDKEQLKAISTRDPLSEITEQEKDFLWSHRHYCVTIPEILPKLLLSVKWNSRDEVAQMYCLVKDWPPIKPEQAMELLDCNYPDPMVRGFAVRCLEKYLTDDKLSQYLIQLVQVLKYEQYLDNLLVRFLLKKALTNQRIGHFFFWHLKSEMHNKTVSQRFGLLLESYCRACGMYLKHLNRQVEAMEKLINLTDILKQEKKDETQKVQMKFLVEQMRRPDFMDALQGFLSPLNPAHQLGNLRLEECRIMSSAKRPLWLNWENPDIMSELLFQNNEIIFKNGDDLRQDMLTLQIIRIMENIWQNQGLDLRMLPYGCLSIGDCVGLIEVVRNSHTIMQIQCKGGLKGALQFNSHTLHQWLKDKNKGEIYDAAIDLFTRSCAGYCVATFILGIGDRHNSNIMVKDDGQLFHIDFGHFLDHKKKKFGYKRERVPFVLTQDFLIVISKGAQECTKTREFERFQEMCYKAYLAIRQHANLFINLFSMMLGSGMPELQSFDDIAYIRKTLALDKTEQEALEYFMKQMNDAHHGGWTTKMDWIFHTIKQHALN
Sequence (P27986 whole entry partner): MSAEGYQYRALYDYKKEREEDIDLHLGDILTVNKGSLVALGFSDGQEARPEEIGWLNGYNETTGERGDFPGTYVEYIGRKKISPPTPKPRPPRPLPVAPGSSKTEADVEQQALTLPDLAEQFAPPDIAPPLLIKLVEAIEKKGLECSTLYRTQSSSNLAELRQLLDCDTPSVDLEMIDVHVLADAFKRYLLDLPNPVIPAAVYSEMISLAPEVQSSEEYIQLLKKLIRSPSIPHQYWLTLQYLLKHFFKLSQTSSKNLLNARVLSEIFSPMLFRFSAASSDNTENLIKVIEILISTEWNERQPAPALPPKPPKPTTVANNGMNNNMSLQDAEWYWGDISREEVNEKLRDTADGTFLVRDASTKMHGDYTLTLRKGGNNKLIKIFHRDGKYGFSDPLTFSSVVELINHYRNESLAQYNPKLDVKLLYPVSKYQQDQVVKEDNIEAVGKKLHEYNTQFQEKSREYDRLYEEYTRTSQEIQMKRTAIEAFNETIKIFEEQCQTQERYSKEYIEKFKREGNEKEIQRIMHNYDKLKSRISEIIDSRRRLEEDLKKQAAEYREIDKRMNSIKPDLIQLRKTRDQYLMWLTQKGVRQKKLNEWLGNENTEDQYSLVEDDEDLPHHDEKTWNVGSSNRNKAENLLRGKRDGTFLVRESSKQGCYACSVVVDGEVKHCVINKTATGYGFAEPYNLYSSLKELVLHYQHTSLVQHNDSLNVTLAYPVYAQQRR
Assay: PI3Kα enzyme assay (ADP-Glo)
Type: biochemical
Conditions: read-out: PI3Kα enzyme inhibitory activity
ATTRIBUTE MEASURED: IC50

1. CC(C)c1cnnc(Nc2ccc3ncc(C(=O)Nc4ccncc4)cc3n2)c1    1 to 10 µM
2. CC(C)c1nnc(Nc2ccc3nccc(-c4cnn(CCN5CCOCC5)c4)c3n2)s1    < 1 µM
3. CC(C)c1cnnc(Nc2ccc3ncc(-c4ccnc(N)c4)cc3n2)c1    < 1 µM
4. CC(=O)N1CCC(c2cnc3ccc(Nc4nnc(C5CCCC5)s4)nc3c2)CC1    10 to 50 µM
